Origin of the recorded values: patent US9815851B2

compounds and their reported pIC50 (REN)
target: UniProt P51449; experiment: RORγ Gal4 Reporter Gene Assay in 293T cells (firefly and renilla luciferase); format: cell-based, human; details: third value of the cell; Gal4 reporter gene assay in 293T cells, renilla normalised luciferase
Just the number, please, no unit after it.

Here are 3 compounds together with their reported answers.
Cc1c(C(=O)NCC(C)(C)NS(C)(=O)=O)cc(-c2cc(C(C)(C)C)c3c(c2)C2(CCO3)CC2)n1CC1CCCCC1 = 7.3
Cc1c(C(N)=O)cc(-c2cc(C(C)(C)C)cc(C(C)(C)C)c2)n1S(=O)(=O)N1CCCCC1 = 6.2
Cc1c(C(=O)N[C@H]2C[C@H](C(=O)O)C2)cc(-c2cc(C(=O)NC(C)(C)C(F)(F)F)cc(C3(C)CC3)c2)n1CC1CCCCC1 = 7.4

[ask] Hello, I am looking for reported pIC50 (REN) with UniProt P51449 for "Cc1c(C(=O)NCC(C)(C)O)cc(-c2cc(C(C)(C)C)nc(C3(C)CC3)n2)n1CC1CCCCC1" . Could you help?
[reply] 6.7

[ask] Now the same for "Cc1c(C(=O)NC2CC2)cc(-c2cc(C(C)(C)C)cc(C3(C)CC3)c2)n1CC1CCCCC1"
[reply] 7.0

[ask] Now the same for "Cc1c(C(=O)N2CCC(C)(O)CC2)cc(-c2cc(C(C)(C)C)cc(C(C)(C)C)c2)n1CC1CCCCC1"
[reply] 6.8

---

target: RORγ ligand binding domain (LBD) (Homo sapiens, UniProt P51449); construct: made in house; host or cells: E. coli BL-21 (BL3), vector pDEST15; test: TR-FRET Activity Assay (ligand sensing, RORγ-LBD / coactivator peptide interaction, LANCE); format: biochemical; conditions: first value of the cell FRET/FF/REN; TR-FRET activity assay; read-out: pIC50 (FRET) (converted)
test_readout: IC50

Here are 3 compounds together with their reported answers.
Cc1c(C(=O)NCC(C)(C)O)cc(-c2ccc(S(=O)(=O)N(C)C(C)(C)C)c(C(C)(C)C)c2)n1CC1CCCCC1 = 501 nM
Cc1c(C(=O)NC2CCOCC2)cc(-c2ccc(S(=O)(=O)NC(C)(C)C)c(F)c2)n1CC1CCCCC1 = 1000 nM
Cc1c(C(=O)NC2COC2)cc(-c2cc(C(=O)N(C)C(C)(C)C)nc(C(C)(C)C)c2)n1CC1CCCCC1 = 2000 nM

[ask] Data request, read-out IC50, for "Cc1c(C(=O)NCC2(O)CCSCC2)cc(-c2cc(C(C)(C)C)c3c(c2)C2(CCO3)CC2)n1CC1CCCCC1"
[reply] 1260 nM

---

compounds and their reported pIC50 (REN)
Target: RORγ (UniProt P51449)
Sequence (P51449 1-518): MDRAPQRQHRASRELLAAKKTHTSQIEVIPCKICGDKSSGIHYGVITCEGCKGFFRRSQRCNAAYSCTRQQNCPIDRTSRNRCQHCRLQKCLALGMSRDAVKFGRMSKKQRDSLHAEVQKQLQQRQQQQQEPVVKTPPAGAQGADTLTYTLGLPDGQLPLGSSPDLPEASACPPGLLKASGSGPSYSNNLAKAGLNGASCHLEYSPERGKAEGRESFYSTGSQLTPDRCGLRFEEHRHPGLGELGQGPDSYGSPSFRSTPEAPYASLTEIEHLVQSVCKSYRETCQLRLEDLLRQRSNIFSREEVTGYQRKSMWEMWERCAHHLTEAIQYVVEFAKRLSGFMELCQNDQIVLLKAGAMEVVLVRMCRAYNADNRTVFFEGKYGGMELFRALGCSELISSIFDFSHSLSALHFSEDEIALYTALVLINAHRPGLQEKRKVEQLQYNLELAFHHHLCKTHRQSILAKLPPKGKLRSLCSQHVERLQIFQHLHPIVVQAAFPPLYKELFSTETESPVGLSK
Assay: RORγ Gal4 Reporter Gene Assay in 293T cells (firefly and renilla luciferase)
Assay type: cell-based, human
Details: third value of the cell; Gal4 reporter gene assay in 293T cells, renilla normalised luciferase
Just the number, please, no unit after it.

Here are 6 compounds together with their reported answers.
Cc1c(C(=O)NC2CCOCC2)cc(-c2cc(NCC(C)(C)C)nc(C(F)(F)F)c2)n1CC1CCCCC1 = 6.9
Cc1c(C(=O)N[C@H]2C[C@H](C(=O)O)C2)cc(-c2cc(C(F)(F)F)c3c(c2)C(C)(C)C(=O)N3C)n1CC1CCCCC1 = 6.6
Cc1c(C(=O)NCCCS(C)(=O)=O)cc(-c2cc(C(C)(C)C)c3c(c2)C2(CCO3)CC2)n1CC1CCCCC1 = 7.0
CCC(C)(C)NS(=O)(=O)c1ccc(-c2cc(C(=O)NC3CCOCC3)c(C)n2CC2CCC2)cc1C(F)(F)F = 7.7
Cc1c(C(=O)NCCC(C)(C)C(=O)O)cc(-c2cc(C(=O)NC(C)(C)C)cc(C3(C)CC3)c2)n1CC1CCCCC1 = 7.1
Cc1c(C(=O)NCC(C)(C)O)cc(-c2ccc(S(=O)(=O)NC(C)(C)C)c3ccccc23)n1CC1CCCC(F)C1 (stereo not shown) = 7.3

Shift focus to the following entry.
[ask] Data request, read-out pIC50 (REN), for "Cc1c(C(=O)NCC(C)(C)O)cc(-c2cccc3c(S(=O)(=O)NC(C)(C)C)cccc23)n1CC1CCCCC1"
[reply] 6.9
